Just for reference, ChEMBL document CHEMBL1134241 is where these values come from.

# system: Substance-K receptor (Homo sapiens, UniProt P21452)
# Sequence (P21452 whole entry): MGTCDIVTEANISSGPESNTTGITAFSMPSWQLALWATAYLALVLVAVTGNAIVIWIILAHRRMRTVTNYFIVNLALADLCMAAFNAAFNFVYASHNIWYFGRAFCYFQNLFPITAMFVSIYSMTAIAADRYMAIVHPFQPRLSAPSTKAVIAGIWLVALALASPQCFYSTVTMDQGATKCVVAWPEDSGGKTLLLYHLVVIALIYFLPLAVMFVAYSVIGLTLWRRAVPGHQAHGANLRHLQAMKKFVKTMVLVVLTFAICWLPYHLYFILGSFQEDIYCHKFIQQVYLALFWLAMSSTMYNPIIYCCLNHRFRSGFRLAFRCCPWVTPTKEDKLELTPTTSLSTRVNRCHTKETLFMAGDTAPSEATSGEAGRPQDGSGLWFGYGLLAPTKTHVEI
pIC50: −log10 of the molar value.
The entries below are paired with their reported pIC50.

- compound: "[O-][S+](CC1(O)CCN(CCc2c[nH]c3ccc(F)cc23)CC1)c1ccccc1 (racemic)"
  pIC50: 7.66
- compound: "COC1(C[S+]([O-])c2ccccc2)CCN(CCc2c[nH]c3ccc(F)cc23)CC1 (racemic)"
  pIC50: 8.60
- compound: "[O-][S+](CC1(O)CCN(CCc2c[nH]c3ccc(F)cc23)CC1)c1ccc2ccccc2c1 (racemic)"
  pIC50: 7.87
